Hey, just so you know, these numbers are from patent US8962830B2.

System: LIM 1899 colon carcinoma derived epithelial cells
Experiment: Cellular activity, MTT cell growth assay, LIM1899
Type: cell-based
Settings: 96 h, 4 days incubation
readout_kind: IC50 (nM)

CC(C)(CNC(=O)c1ccccn1)n1nc(-c2ccc(Cl)cc2)c2c(N)ncnc21: 900
Cc1ccc(-c2nn(C(C)(C)CNC(=O)c3cc(-c4ccccc4)ccn3)c3ncnc(N)c23)cc1: 310
Cc1ccc(-c2nn(C(C)(C)CNC(=O)c3ccccn3)c3ncnc(N)c23)cc1: 170

[P] Cc1ccc(-c2nn(C(C)(C)CNC(=O)c3cc(Cl)ccn3)c3ncnc(N)c23)cc1
[Q] Cc1ccc(-c2nn(C(C)(C)CNC(=O)c3cccc(C)n3)c3ncnc(N)c23)cc1
## Input Between P and Q , whose measured IC50 reads higher? Your choice should be expressed through its label.
## Output P

###

Parameter IC50: see the listing below.
Test system: RasNIH3T3
Assay: Cellular activity, MTT cell growth assay, RasNIH3T3
Assay type: cell-based
Conditions: 96 h; MTT, 4 days incubation; read-out: RasNIH3T3 (cellular data)
Only the number, expressed in nM, is required.

## Input Recorded IC50 of Cc1ccc(-c2nn(C(C)(C)CNC(=O)c3cc(C)ccn3)c3ncnc(N)c23)cc1 , please.
## Output 1670

## Input Recorded IC50 of Cc1ccc(-c2nn(C(C)(C)CNC(=O)c3ccccn3)c3ncnc(N)c23)cc1 , please.
## Output 110

## Input Recorded IC50 of COc1ccnc(C(=O)NCC(C)(C)n2nc(-c3ccc(C)cc3)c3c(N)ncnc32)c1 , please.
## Output 1830

## Input Recorded IC50 of Cc1ccc(-c2nn(C(C)(C)CNC(=O)c3cscn3)c3ncnc(N)c23)cc1 , please.
## Output 630

## Input Recorded IC50 of Cc1ccc(-c2nn(C(C)(C)CNC(=O)c3cccnc3)c3ncnc(N)c23)cc1 , please.
## Output 17000

## Input Recorded IC50 of Cc1ccc(-c2nn(C(C)(C)CNC(=O)c3ccncn3)c3ncnc(N)c23)cc1 , please.
## Output 350

## Input Recorded IC50 of Cc1ccc(-c2nn(C(C)(C)CNC(=O)c3cnccn3)c3ncnc(N)c23)cc1 , please.
## Output 1620

###

Tested on: LIM 1899 colon carcinoma derived epithelial cells
Test: Cellular activity, MTT cell growth assay, LIM1899
Format: cell-based
Conditions: 96 h, 4 days incubation
readout_kind: IC50 (nM)

Cc1ccc(-c2nn(C(C)(C)CNC(=O)c3ncccc3C)c3ncnc(N)c23)cc1: 3100

[P] COc1ccnc(C(=O)NCC(C)(C)n2nc(-c3ccc(C)cc3)c3c(N)ncnc32)c1
[Q] Cc1ccc(-c2nn(C(C)(C)CNC(=O)c3cc(C)ccn3)c3ncnc(N)c23)cc1
## Input Between P and Q , whose measured IC50 reads higher? Your choice should be expressed through its label.
## Output P

###

Molecular target: Src recombinant enzyme, N-terminally His6 tagged full-length human protein (Homo sapiens, UniProt P12931)
Construct: Src recombinant enzyme was purchased as N-terminally His6 tagged full-length human protein; His6 (N); purchased
Sequence (P12931 whole entry): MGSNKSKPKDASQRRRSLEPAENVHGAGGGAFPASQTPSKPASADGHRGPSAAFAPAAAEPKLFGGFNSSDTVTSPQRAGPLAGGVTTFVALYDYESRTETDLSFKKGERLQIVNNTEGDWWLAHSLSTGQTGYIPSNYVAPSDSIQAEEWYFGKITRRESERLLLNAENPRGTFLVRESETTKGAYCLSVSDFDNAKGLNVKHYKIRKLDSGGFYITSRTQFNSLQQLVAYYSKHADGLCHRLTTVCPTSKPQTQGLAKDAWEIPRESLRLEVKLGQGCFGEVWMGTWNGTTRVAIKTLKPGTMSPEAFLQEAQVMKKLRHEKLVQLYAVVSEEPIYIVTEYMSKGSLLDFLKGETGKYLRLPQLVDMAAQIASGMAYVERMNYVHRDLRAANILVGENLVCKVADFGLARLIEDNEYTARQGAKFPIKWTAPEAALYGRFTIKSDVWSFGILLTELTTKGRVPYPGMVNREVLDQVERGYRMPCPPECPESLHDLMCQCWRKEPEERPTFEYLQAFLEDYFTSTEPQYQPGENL
Assay: SRC kinase inhibition assay (AlphaScreen)
Assay type: biochemical
Details: 80 μM ATP, 90 minutes at 30 degree Celsius
readout_kind: IC50

Below, each entry is followed by its recorded IC50 result.
Cc1ccc(-c2nn(C(C)(C)CNC(=O)c3ncccc3C)c3ncnc(N)c23)cc1: > 10000 nM
Cc1ccc(-c2nn(C(C)(C)CNC(=O)c3ccc(CN)cc3)c3ncnc(N)c23)cc1 [13 (compound 13C)]: 1 to 100 nM
Cc1ccc(-c2nn(C(C)(C)CNC(=O)c3ccc(CCN)cc3)c3ncnc(N)c23)cc1 [10 (compound 10C)]: 1 to 100 nM
Cc1ccc(-c2nn(C(C)(C)CNC(=O)c3ccccn3)c3ncnc(N)c23)cc1: 1 to 100 nM
Cc1ccc(-c2nn(C(C)(C)CNC(=O)c3ccc(Br)cn3)c3ncnc(N)c23)cc1: 1000 to 10000 nM
Cc1ccc(-c2nn(C(C)(C)CNC(=O)CCCN)c3ncnc(N)c23)cc1 [85 (compound 85C)]: 100 to 1000 nM

## Input Recorded IC50 of Cc1ccc(-c2nn(C(C)(C)CNC(=O)c3cc(CN4CCOCC4)ccn3)c3ncnc(N)c23)cc1 , please.
## Output 1 to 100 nM

## Input Recorded IC50 of Cc1ccc(-c2nn(C(C)(C)CNC(=O)Cc3ccccc3)c3ncnc(N)c23)cc1 , please.
## Output 1000 to 10000 nM

###

Target: Src recombinant enzyme, N-terminally His6 tagged full-length human protein (Homo sapiens)
Construct: Src recombinant enzyme was purchased as N-terminally His6 tagged full-length human protein; His6 (N); purchased
Assay: SRC kinase inhibition assay (AlphaScreen)
Assay type: biochemical
Conditions: 80 μM ATP, 90 minutes at 30 degree Celsius
pIC50: −log10 of the molar value.
Parameter pIC50: see the listing below.

COc1ccnc(C(=O)NCC(C)(C)n2nc(-c3ccc(C)cc3)c3c(N)ncnc32)c1 [Example 61]: 7.00 to 9.00
Cc1ccc(-c2nn(C(C)(C)CNC(=O)c3cc(Br)ccn3)c3ncnc(N)c23)cc1 [Example 42]: 7.00 to 9.00
Cc1ccc(-c2nn(C(C)(C)CNc3ncccn3)c3ncnc(N)c23)cc1 [Example 88]: 6.00 to 7.00
Cc1ccc(-c2nn(C(C)(C)CNC(=N)c3ccccn3)c3ncnc(N)c23)cc1 [Example 77]: 7.00 to 9.00
Cc1ccc(-c2nn(C(C)(C)CNC(=N)N)c3ncnc(N)c23)cc1 [5 (compound 5B)]: 7.00 to 9.00

## Input Recorded pIC50 of CC(=N)NCC(C)(C)n1nc(-c2ccc(C)cc2)c2c(N)ncnc21 [Example 80] , please.
## Output 6.00 to 7.00

## Input Recorded pIC50 of CC(=O)CCCCC(=O)NCC(C)(C)n1nc(-c2ccc(C)cc2)c2c(N)ncnc21 [Example 30] , please.
## Output 6.00 to 7.00

## Input Recorded pIC50 of Cc1ccc(-c2nn(C(C)(C)CNC(=N)c3ccccc3)c3ncnc(N)c23)cc1 [Example 76] , please.
## Output 5.00 to 6.00

###

Target: Src recombinant enzyme, N-terminally His6 tagged full-length human protein (Homo sapiens, UniProt P12931)
Construct: Src recombinant enzyme was purchased as N-terminally His6 tagged full-length human protein; His6 (N)
Assay: SRC kinase inhibition assay (AlphaScreen)
Conditions: 80 μM ATP, 90 minutes at 30 degree Celsius
pIC50: −log10 of the molar value.
readout_kind: pIC50

Below, each entry is followed by its recorded pIC50 result.
Cc1ccc(-c2nn(C(C)(C)CNC(=N)NC#N)c3ncnc(N)c23)cc1 [Example 81]: 7.00 to 9.00
Cc1ccc(-c2nn(C(C)(C)CNC(C)C)c3ncnc(N)c23)cc1 [Example 8]: 6.00 to 7.00
Cc1ccc(-c2nn(C(C)(C)CNC(=O)c3cnccn3)c3ncnc(N)c23)cc1 [Example 56]: 7.00 to 9.00
Cc1ccc(-c2nn(C(C)(C)CNC(=O)c3cnn(-c4cccc(Cl)c4)c3C(F)(F)F)c3ncnc(N)c23)cc1 [Example 26]: 7.00 to 9.00
Cc1ccc(-c2nn(C(C)(C)CNC(=O)c3nc(Cl)ccc3Br)c3ncnc(N)c23)cc1 [Example 49]: 5.00 to 6.00
Cc1ccc(-c2nn(C(C)(C)CNS(=O)(=O)c3ccccn3)c3ncnc(N)c23)cc1 [68 (compound 68B)]: 6.00 to 7.00

## Input Recorded pIC50 of Cc1ccc(-c2nn(C(C)(C)CNC(=O)c3cnc4ccccc4n3)c3ncnc(N)c23)cc1 [Example 51] , please.
## Output 6.00 to 7.00

## Input Recorded pIC50 of Cc1ccc(-c2nn(C(C)(C)CNC(=O)c3cc(-c4ccco4)on3)c3ncnc(N)c23)cc1 [Example 23] , please.
## Output 7.00 to 9.00

###

Target: Src recombinant enzyme, N-terminally His6 tagged full-length human protein (Homo sapiens, UniProt P12931)
Construct: Src recombinant enzyme was purchased as N-terminally His6 tagged full-length human protein; His6 (N)
Experiment: SRC kinase inhibition assay (AlphaScreen)
Details: 80 μM ATP, 90 minutes at 30 degree Celsius
Parameter IC50: see the listing below.

Below, each entry is followed by its recorded IC50 result.
Cc1ccc(-c2nn(C(C)(C)CNC(=O)c3cccc(C)n3)c3ncnc(N)c23)cc1: 1000 to 10000 nM
Cc1ccc(-c2nn(C(C)(C)CNS(=O)(=O)c3ccccc3)c3ncnc(N)c23)cc1: 100 to 1000 nM
Cc1ccc(-c2nn(C(C)(C)CNC(=O)c3cc(N4CCCCC4)ccn3)c3ncnc(N)c23)cc1 [69 (compound 69C)]: 1 to 100 nM
CCNC(=O)NCC(C)(C)n1nc(-c2ccc(C)cc2)c2c(N)ncnc21: 1 to 100 nM

## Input Recorded IC50 of Cc1ccc(-c2nn(C(C)(C)CNC(=O)c3cc(-c4ccccc4)ccn3)c3ncnc(N)c23)cc1 , please.
## Output 1 to 100 nM

## Input Recorded IC50 of Cc1ccc(-c2nn(C(C)(C)CNC(=O)c3cccc(N4CCCCC4)c3)c3ncnc(N)c23)cc1 , please.
## Output 100 to 1000 nM

## Input Recorded IC50 of Cc1ccc(-c2nn(C(C)(C)CNC(=O)c3ccccc3-n3ccnc3)c3ncnc(N)c23)cc1 , please.
## Output 100 to 1000 nM

## Input Recorded IC50 of Cc1ccc(-c2nn(C(C)(C)CNC(=O)c3cc(C)ccn3)c3ncnc(N)c23)cc1 , please.
## Output 100 to 1000 nM
